targetUnderTest: UCHL5 (Homo sapiens)
Sequence (Q9Y5K5 whole entry): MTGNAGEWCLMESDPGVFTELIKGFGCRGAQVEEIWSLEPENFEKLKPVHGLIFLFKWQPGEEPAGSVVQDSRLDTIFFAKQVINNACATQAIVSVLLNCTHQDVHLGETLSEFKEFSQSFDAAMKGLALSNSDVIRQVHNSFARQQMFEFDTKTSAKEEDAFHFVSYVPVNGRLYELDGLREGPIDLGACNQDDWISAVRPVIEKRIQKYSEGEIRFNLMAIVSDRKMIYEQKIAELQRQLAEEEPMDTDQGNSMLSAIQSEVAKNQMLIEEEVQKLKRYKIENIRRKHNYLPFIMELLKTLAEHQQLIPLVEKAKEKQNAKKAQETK
protocolDescription: SPR binding to recombinant UCHL5, NTA chip
measurementContext: protein from ProSpec, read-out: UCHL5(P) KD
observable: Kd (µM)
Answer in µM, number only, no unit symbol.

Report Kd for C=CC(=O)N1CC/C(=C\c2ccc(F)c([N+](=O)[O-])c2)C(=O)/C(=C/c2ccc(F)c([N+](=O)[O-])c2)C1 [VLX1570] please.
14

----------
targetUnderTest: USP14 (Homo sapiens, UniProt P54578)
Sequence (P54578 whole entry): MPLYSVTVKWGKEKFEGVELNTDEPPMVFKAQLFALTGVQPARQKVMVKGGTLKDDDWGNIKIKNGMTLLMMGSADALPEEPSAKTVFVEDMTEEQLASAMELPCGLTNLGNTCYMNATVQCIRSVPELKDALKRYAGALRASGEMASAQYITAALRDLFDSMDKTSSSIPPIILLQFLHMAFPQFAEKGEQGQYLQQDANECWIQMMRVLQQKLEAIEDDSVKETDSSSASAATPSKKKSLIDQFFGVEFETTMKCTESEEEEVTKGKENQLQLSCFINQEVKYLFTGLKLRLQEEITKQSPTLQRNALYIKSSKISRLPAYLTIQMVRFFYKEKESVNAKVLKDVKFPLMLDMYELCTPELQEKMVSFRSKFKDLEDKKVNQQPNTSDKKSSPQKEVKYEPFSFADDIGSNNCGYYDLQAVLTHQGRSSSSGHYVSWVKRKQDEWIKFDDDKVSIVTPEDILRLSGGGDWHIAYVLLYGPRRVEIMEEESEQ
protocolDescription: SPR binding to recombinant USP14, NTA chip
measurementContext: two different sources of recombinant protein; Ni2+-histidine immobilisation; read-out: dissociation constant (KD) for binding to recombinant USP14
observable: Kd

Name the recorded Kd for `C=CC(=O)N1CC/C(=C\c2ccc(F)c([N+](=O)[O-])c2)C(=O)/C(=C/c2ccc(F)c([N+](=O)[O-])c2)C1` .
1.5 to 18 µM
